Tested on: RKO
Assay: Methylene blue growth inhibition assay, RKO
Format: cell-based
Conditions: Homo sapiens, 72 h
pIC50: −log10 of the molar value.
endpoint-name: pIC50

# compound, system-name, result
data = [
    ("C[C@@H](Oc1cc(-n2cnc3ccc(OC4CCN(C)CC4)cc32)sc1C(N)=O)c1ccccc1Cl [Example 8]", "RKO", "> 7.00"),
]

**Q:** State, in one line, measured pIC50 of C[C@@H](Oc1cc(-n2cnc3ccc(OC4CCN(C)CC4)cc32)sc1C(N)=O)c1ccccc1C(F)(F)F [Example 7]
**A:** > 7.00

* * *

Test system: A549
Experiment: Methylene blue growth inhibition assay, A549
Format: cell-based
Settings: Homo sapiens, 72 h
Each entry below lists one item and its recorded IC50 value.

# smiles-repr, system-name, IC50
rows = [
    ("C[C@@H](Oc1cc(-n2cnc3ccc(OC4CCN(C)CC4)cc32)sc1C(N)=O)c1ccccc1Cl", "A549", "< 0.1 µM"),
]

Could you now consider this next compound?
**Q:** State, in one line, measured IC50 of C[C@@H](Oc1cc(-n2cnc3ccc(OC4CCN(C)CC4)cc32)sc1C(N)=O)c1ccccc1C(F)(F)F
**A:** < 0.1 µM

// data source = patent US7786127B2
